System: ATP;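 further: ATP exposure 15 min at 22 °C before imaging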
assay.text: switch fluorescence ratio, 500 uM ATP over buffer (Cy3 cluster intensity, sum of 5 cycles each) (fold (ratio)); higher = stronger signal-on switching upon ATP binding; sequences stand for … in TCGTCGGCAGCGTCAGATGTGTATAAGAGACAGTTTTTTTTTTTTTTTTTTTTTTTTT…TC
run.parameters: aptamer strand: ATP DNA aptamer (quencher-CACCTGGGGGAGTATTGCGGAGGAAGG + anchor), 100 nM annealed; ATP concentration: 500 uM
reported.endpoint: switch fluorescence ratio
Numbers only.

CCAATGAGTC = 0.971
TTAGATACAT = 1
TTGACAGGTT = 1.15
CATGCCATCC = 1.16
GCGGTCATGG = 0.992

Please give switch fluorescence ratio, item by item, for the list that follows.
1. GTAATTGGGC
2. GGTGTGGTCA
3. GGGGTAATGG
4. TGGGCGATAG
5. GAAGTGAGGG
6. GTGGGTTAGG
7. CGGGAATTGG
8. CGACATGGTC

Result:
1. 0.964
2. 0.977
3. 0.993
4. 1.02
5. 0.995
6. 0.996
7. 0.961
8. 1.02

Hey, can you go through the list below and give me switch fluorescence ratio for every item?
1. CGGGATTATC
2. TTTGCGTTTT
3. ACTACCTTAC
4. TCAGGGTCTT

Result:
[1.01, 1.01, 3.15, 1.01]

Record switch fluorescence ratio per entry; entries follow.
1. GTTAGGGGTG
2. GCATTTGGGA
3. AGACAGTTGG
4. TTTGTCCAGT

Result:
[1.02, 0.99, 0.99, 0.991]

Batch request: switch fluorescence ratio for each of the following sequences.
1. AGTATTCTAT
2. CGGGGCCTGG
3. CGGTGAAGTT

Result:
1. 1
2. 0.959
3. 0.966

----------
Test system: ATP;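 further: ATP exposure 15 min at 22 °C before imaging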
assay.text: switch fluorescence ratio, 500 uM ATP over buffer (Cy3 cluster intensity, sum of 5 cycles each) (fold (ratio)); higher = stronger signal-on switching upon ATP binding; sequences stand for … in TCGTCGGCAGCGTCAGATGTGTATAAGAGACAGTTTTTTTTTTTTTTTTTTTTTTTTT…TC
run.parameters: aptamer strand: ATP DNA aptamer (quencher-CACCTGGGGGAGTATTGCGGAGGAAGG + anchor), 100 nM annealed; ATP concentration: 500 uM
reported.endpoint: switch fluorescence ratio
One number for each entry.

GGGATTGCGG = 1.12
TTAAAAGGAG = 1.01
ACCCAAGATT = 1.01
AGCGTCTCCG = 1.02
TTGGGAACGG = 1.03

Record switch fluorescence ratio per entry; entries follow.
1. GATTTACGTG
2. TTAAGGGGG
3. GAGTATCTAG
4. AAGGATTTTG
5. CGGGGGATGT
6. ATCGGCAGGG

Result:
1: 1.02; 2: 1.03; 3: 0.986; 4: 0.994; 5: 0.999; 6: 0.981

----------
Test system: ATP;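 further: ATP exposure 15 min at 22 °C before imaging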
assay.text: switch fluorescence ratio, 500 uM ATP over buffer (Cy3 cluster intensity, sum of 5 cycles each) (fold (ratio)); higher = stronger signal-on switching upon ATP binding; sequences stand for … in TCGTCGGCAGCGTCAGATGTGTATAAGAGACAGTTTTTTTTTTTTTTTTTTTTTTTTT…TC
run.parameters: aptamer strand: ATP DNA aptamer (quencher-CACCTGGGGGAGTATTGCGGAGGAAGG + anchor), 100 nM annealed; ATP concentration: 500 uM
Use Fulfilled when the recorded switch fluorescence ratio is no lower than 1; use Not fulfilled when it is lower.

TTGGAAAGCA = Fulfilled
GGGTGCCGGG = Not fulfilled
ACAGTACTTG = Fulfilled

Task: Does the reported switch fluorescence ratio for AAGCAATTAT fall at or above the 1 mark?
Result: Fulfilled

Task: Determine whether this sequence has switch fluorescence ratio no lower than 1: TGGTCGTACG
Result: Not fulfilled

Task: In plain terms: is recorded switch fluorescence ratio at least 1 for TTCTTCTCAA ?
Result: Fulfilled

Task: API: above_or_equal(metric=switch fluorescence ratio, cutoff=1) for item TTTCAATTTG
Result: Fulfilled

----------
Tested on: ATP;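 further: ATP exposure 15 min at 22 °C before imaging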
assay.text: switch fluorescence ratio, 500 uM ATP over buffer (Cy3 cluster intensity, sum of 5 cycles each) (fold (ratio)); higher = stronger signal-on switching upon ATP binding; sequences stand for … in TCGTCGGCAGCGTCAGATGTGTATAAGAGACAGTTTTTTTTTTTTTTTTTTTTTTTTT…TC
run.parameters: aptamer strand: ATP DNA aptamer (quencher-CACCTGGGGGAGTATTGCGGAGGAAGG + anchor), 100 nM annealed; ATP concentration: 500 uM
Give switch fluorescence ratio for every item shown.
Numbers only.

TTCGTAGTGG = 1
GGTGTTGGGG = 1.02

# batch: return switch fluorescence ratio for each of the 2 sequences below
1. AAGATCCTTT
2. GGCTGGGATG

Result:
1. 0.986
2. 1.02

----------
System: ATP;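 further: ATP exposure 15 min at 22 °C before imaging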
assay.text: switch fluorescence ratio, 500 uM ATP over buffer (Cy3 cluster intensity, sum of 5 cycles each) (fold (ratio)); higher = stronger signal-on switching upon ATP binding; sequences stand for … in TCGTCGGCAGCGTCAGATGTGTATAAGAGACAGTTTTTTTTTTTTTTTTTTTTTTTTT…TC
run.parameters: aptamer strand: ATP DNA aptamer (quencher-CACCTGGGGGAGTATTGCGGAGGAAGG + anchor), 100 nM annealed; ATP concentration: 500 uM
Provide the recorded switch fluorescence ratio for the entries that follow.
Numbers only.

AGTTTGGATA = 0.97
CCGCGACAGG = 3.04
AAAGCGTATA = 0.987
GTTAGTGATG = 0.984
TCCAAGTGTT = 0.998
TTTTTCCGTT = 1.12

Go through the list and state switch fluorescence ratio for each entry.
1. AATTGATAGG
2. CCAGTTTTTC
3. CGTAATGCCT
4. CCTAACAGTT

Result:
1: 0.982; 2: 1.01; 3: 1.03; 4: 1.02

----------
Could you please report measured switch fluorescence ratio for the items listed next?
Test system: ATP;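 further: ATP exposure 15 min at 22 °C before imaging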
assay.text: switch fluorescence ratio, 500 uM ATP over buffer (Cy3 cluster intensity, sum of 5 cycles each) (fold (ratio)); higher = stronger signal-on switching upon ATP binding; sequences stand for … in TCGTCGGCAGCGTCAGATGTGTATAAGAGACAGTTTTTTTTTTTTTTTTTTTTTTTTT…TC
run.parameters: aptamer strand: ATP DNA aptamer (quencher-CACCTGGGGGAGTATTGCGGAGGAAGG + anchor), 100 nM annealed; ATP concentration: 500 uM
One number for each entry.

For each of the items listed, what is its switch fluorescence ratio?
1. TGGTAGGAGA
2. CAAATTGGAC

Result:
1: 0.979; 2: 1.03

----------
System: ATP;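 further: ATP exposure 15 min at 22 °C before imaging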
assay.text: switch fluorescence ratio, 500 uM ATP over buffer (Cy3 cluster intensity, sum of 5 cycles each) (fold (ratio)); higher = stronger signal-on switching upon ATP binding; sequences stand for … in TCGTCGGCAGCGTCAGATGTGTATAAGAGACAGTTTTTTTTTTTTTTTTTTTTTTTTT…TC
run.parameters: aptamer strand: ATP DNA aptamer (quencher-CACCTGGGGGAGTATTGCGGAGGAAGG + anchor), 100 nM annealed; ATP concentration: 500 uM
reported.endpoint: switch fluorescence ratio
Give bare numbers.

Example results:
TAAGGGACAC = 1.05
TTGGGGATCG = 0.983
TATGTGGGTA = 0.983
CGATCGATAT = 0.998
TGTTGTATAA = 1.2

I need switch fluorescence ratio for every entry listed below, if you could help.
1. TTTTCTTGCC
2. CAGATATTTC
3. GAGTGCGACG
4. TAGTTGTTCC
5. GGACTAGTTA
6. AGGGATAAAG
7. TACCTGGTTT

Result:
[1.09, 1.02, 1.08, 1.07, 0.99, 1.01, 1]

Would you mind giving switch fluorescence ratio for every sequence in the list below?
1. ATGGTGGTGT
2. TAAGGCTGGG

Result:
1.03
0.962

Would you mind giving switch fluorescence ratio for every sequence in the list below?
1. TTTTGGGTGT
2. CCGCTCGATG
3. GACGGGGCG

Result:
1: 1.02; 2: 1.37; 3: 0.97

Hi there! I need switch fluorescence ratio for each item below, if you can.
1. TGGAGAAATA
2. GTGTGGGGGT
3. CAGTCCGGGA
4. GGCTTTTTTG

Result:
1.01
0.98
1.1
0.995

----------
Hi there, I'd appreciate the recorded switch fluorescence ratio for every entry that follows.
System: ATP;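 further: ATP exposure 15 min at 22 °C before imaging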
assay.text: switch fluorescence ratio, 500 uM ATP over buffer (Cy3 cluster intensity, sum of 5 cycles each) (fold (ratio)); higher = stronger signal-on switching upon ATP binding; sequences stand for … in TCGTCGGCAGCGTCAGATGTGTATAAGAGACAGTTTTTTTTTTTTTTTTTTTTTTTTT…TC
run.parameters: aptamer strand: ATP DNA aptamer (quencher-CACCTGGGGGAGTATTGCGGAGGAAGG + anchor), 100 nM annealed; ATP concentration: 500 uM

Consider the reported switch fluorescence ratio for these sequences:
CTGGGGGTTA = 0.999
TGGGTGCGCA = 1.03
TTTAAGTTTT = 1
CGTTTGGAGG = 1.03
ATCGGAATGT = 1.01
GGCAATATGG = 1.23

// batch mode: one switch fluorescence ratio value per listed entry
1. GAAAGCGGGG
2. GCGGAACGGT
3. TTGATAGTTG
4. ATCGACATAT
5. TTTGTCGTCG

Result:
1: 0.968; 2: 1.03; 3: 1.01; 4: 1.04; 5: 1
